# System: Candida albicans
# method.summary: Antifungal activity against Candida albicans ATCC 10231
# Type: functional
# test.conditions: read-out: MIC
test.readout: MIC (µM)

Observed MIC, Candida albicans, O=c1ccc2nccc3c4ccccc4n1c23 : 56.8

Observed MIC, Candida albicans, CC(=O)N1CCN(c2ccc(OCC3COC(Cn4ccnc4)(c4ccc(Cl)cc4Cl)O3)cc2)CC1 (stereo not given) : 2.9

Observed MIC, Candida albicans, CCCC[n+]1ccc2c3ccccc3n3c(=O)ccc1c23 : 124

Observed MIC, Candida albicans, COc1c2c(c3ccc(=O)oc3c1/C=C\C(C)(C)O)OC(C)(C)C=C2 : 146

(P) COc1c2c(c3ccc(=O)oc3c1/C=C/C(C)(C)O)OC(C)(C)C=C2
(Q) Nc1cc(=O)n2c3ccccc3c3ccnc1c32
(R) COc1ccc2c(c1)c1ccnc3ccc(=O)n2c31
Would you mind ranking these molecules by ascending MIC? Answer by naming the labels in the order asked.
Q, R, P
(Q: 53.2 µM, R: 100 µM, P: 146 µM)
